src = patent US20240279318A1

Quick list: Affinity increase per entry.
target: T1, AFP158/HLA-A*02:01 complex (human); experiment: SPR, KD ratio to AS170036 VL1VH1;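 further: crude scFv captured on a sensor chip, peptide–HLA complex passed over at several concentrations, association then buffer dissociation, KD derived from on- and off-rates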
T1 construct: flowed over the chip in SPR; also called AFP158 pro

{"columns": ["Binder", "Affinity increase [fold]"],
 "data": [
  ["LH98I (scFv, AS170036 VL1VH1 scFv mutein; also called AS170036 VL1VH1-VLH98I) scFv: QSALTQPRSVSGSPGQSVTISCAGTSSDVGSENYVSWYQQHPGKAPKLMIYQVNKRASGVPDRFSGSKSGNTASLTISGLQAEDEADYYCASYRSSDINIVFGGGTKLTVLGGGGSGGGGSGGGGSEVQLVESGGGLVQPGGSLRLSCAASGFTFSSYAMSWVRQAPGKGLEWVSTINSGTGSPYYADSVKGRFTISRDNSKNTLYLQMNSLRAEDTAVYYCAKNFFDGSWFLGPPAMDYWGQGTLVTVSSHHHHHH", 3.1],
  ["LH98S (scFv, AS170036 VL1VH1 scFv mutein) scFv: QSALTQPRSVSGSPGQSVTISCAGTSSDVGSENYVSWYQQHPGKAPKLMIYQVNKRASGVPDRFSGSKSGNTASLTISGLQAEDEADYYCASYRSSDSNIVFGGGTKLTVLGGGGSGGGGSGGGGSEVQLVESGGGLVQPGGSLRLSCAASGFTFSSYAMSWVRQAPGKGLEWVSTINSGTGSPYYADSVKGRFTISRDNSKNTLYLQMNSLRAEDTAVYYCAKNFFDGSWFLGPPAMDYWGQGTLVTVSSHHHHHH", 1.4],
  ["LH98W (scFv, AS170036 VL1VH1 scFv mutein) scFv: QSALTQPRSVSGSPGQSVTISCAGTSSDVGSENYVSWYQQHPGKAPKLMIYQVNKRASGVPDRFSGSKSGNTASLTISGLQAEDEADYYCASYRSSDWNIVFGGGTKLTVLGGGGSGGGGSGGGGSEVQLVESGGGLVQPGGSLRLSCAASGFTFSSYAMSWVRQAPGKGLEWVSTINSGTGSPYYADSVKGRFTISRDNSKNTLYLQMNSLRAEDTAVYYCAKNFFDGSWFLGPPAMDYWGQGTLVTVSSHHHHHH", 1.2]
]}
